- measurement.target: Procathepsin L (Homo sapiens)
- Sequence (P07711 whole entry): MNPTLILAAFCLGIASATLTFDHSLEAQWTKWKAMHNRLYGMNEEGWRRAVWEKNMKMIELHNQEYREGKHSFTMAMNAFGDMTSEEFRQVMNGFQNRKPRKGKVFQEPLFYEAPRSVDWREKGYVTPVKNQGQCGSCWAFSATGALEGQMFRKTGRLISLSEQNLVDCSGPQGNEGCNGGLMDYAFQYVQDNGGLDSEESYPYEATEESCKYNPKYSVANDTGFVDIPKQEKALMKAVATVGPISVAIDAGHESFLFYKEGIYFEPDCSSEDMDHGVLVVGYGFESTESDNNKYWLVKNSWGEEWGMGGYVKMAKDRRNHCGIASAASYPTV
assay.metric: pIC50
Give bare numbers, as −log10 of the molar value.

Dear colleague, I am looking for the recorded pIC50 of the following compound: CC(C)C[C@H](CC(=O)NO)C(=O)N[C@@H](Cc1ccccc1)C(=O)N[C@@H](C)C=O 7.60

====

- measurement.target: UniProt P28222
- Sequence (P28222 whole entry): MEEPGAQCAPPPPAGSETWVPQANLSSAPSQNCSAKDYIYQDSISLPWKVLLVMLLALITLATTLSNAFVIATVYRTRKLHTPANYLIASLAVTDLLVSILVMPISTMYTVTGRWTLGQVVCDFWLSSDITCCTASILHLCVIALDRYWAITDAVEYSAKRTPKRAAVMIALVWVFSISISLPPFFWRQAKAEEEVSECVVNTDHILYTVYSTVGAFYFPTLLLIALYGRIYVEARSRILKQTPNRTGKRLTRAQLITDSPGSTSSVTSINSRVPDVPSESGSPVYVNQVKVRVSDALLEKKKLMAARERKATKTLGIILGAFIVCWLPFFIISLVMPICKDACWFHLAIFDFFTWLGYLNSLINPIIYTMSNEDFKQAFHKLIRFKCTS
pKi: −log10 of the molar value.
assay.metric: pKi

Can you look up pKi on UniProt P28222 for C[C@@H]1CN(c2cccc3cc(F)ccc23)CCN1CCC1OCCc2c1sc(C(N)=O)c2Cl (stereo partly specified) ? < 6.00

====

- measurement.target: UniProt:P30556
- Sequence (P30556 whole entry): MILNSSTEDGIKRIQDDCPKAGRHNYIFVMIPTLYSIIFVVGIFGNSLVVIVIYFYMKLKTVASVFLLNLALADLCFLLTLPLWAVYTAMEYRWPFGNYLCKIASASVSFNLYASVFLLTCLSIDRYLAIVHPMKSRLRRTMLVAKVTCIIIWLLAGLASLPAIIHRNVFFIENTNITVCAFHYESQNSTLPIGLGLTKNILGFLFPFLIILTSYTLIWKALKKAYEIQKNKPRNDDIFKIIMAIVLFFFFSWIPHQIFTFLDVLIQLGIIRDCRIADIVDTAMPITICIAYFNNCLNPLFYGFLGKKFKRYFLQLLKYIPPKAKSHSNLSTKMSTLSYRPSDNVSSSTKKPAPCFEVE
assay.metric: IC50 (nM)
One number for each entry, in nM.

INSERT INTO measurements (molecule, measurement_target, assay_metric, obs_value) VALUES
  ('CCCCc1nc2ccc(NC(=O)N(C)C(C)C)cc2c(=O)n1Cc1ccc(-c2ccccc2-c2nnn[nH]2)cc1', 'UniProt:P30556', 'IC50', 0.1),
  ('CCCCCN(C(=O)c1ccccc1)c1ccc2nc(CCC)n(Cc3ccc(-c4ccccc4-c4nn[nH]n4)cc3)c(=O)c2c1', 'UniProt:P30556', 'IC50', 1.7);

Dear colleague, I am looking for the recorded IC50 of the following molecule: CCCc1cc(Cn2c(CC)nc3c(C)cc(C)nc32)ccc1OC(C(=O)NS(=O)(=O)c1ccc(C(C)C)cc1)c1ccc2c(c1)OCC2 (stereo not drawn) 13
